Tested on: GST-TMEM106B (truncated, comprising amino acids 122-210 of SEQ ID NO:1) (Homo sapiens, UniProt Q9NUM4)
Sequence (Q9NUM4 122-210): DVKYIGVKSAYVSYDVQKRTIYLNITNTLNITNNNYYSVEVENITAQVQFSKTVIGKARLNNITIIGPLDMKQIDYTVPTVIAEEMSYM
Procedure text: Pre-mix epitope binning of anti-TMEM106B antibodies (Carterra / Lake Pharma)
Format: binding
Design: key: Bin 1: competes for binding to the same or overlapping TMEM106B region as the TM1, TM17, TM22, TM26, TM79, and/or TM82 antibodies; Bin 2: competes for binding to the same or overlapping TMEM106B region as the TM3, TM9, TM10, TM11, TM12, TM13, TM18, TM19, TM21, TM24, TM25, TM32, TM35, TM37, TM42, TM45, TM48, TM54, TM59, TM60, TM61, and/or TM76 antibodies; Bin 3: competes for binding to the same or overlapping TMEM106B region as the TM7, TM15, TM83, and/or TM84 antibodies; Bin 4: competes for binding to the same or overlapping TMEM106B region as the TMS, TM28, TM29, TM30, TM63, TM64, TM72, TM78, TM80, TM86, and/or TM88 antibodies; Bin 5: does not bind to a truncated TMEM106B comprising amino acids 122-210 of SEQ ID NO:1
Condition summary: competition for binding to truncated GST-TMEM106B (amino acids 122-210)
Observation type: epitope bin

Molecule	Reported value
TM-61: anti-TMEM106B monoclonal antibody; VH SEQ ID NO: 467, VL SEQ ID NO: 503 (antibody, V domains shown, Variable Heavy Chain -- TM-61; Variable Light Chain -- TM-61) VH: QVQLQQSGAELAKPGASVKLSCKASGYTFTNYWMNWVKQRPGQGLEWIGYINPSSDYTKYNQNFKDKATLTADKSSSTAYMQLNSLTYEDSAVYYCTRWGGSRSYWYFDVWGAGTTVTVSS VL: DIVMTQSPSSLSASAGEKVTMSCKSSQSLLNSGNQKNYLAWYQQKPGQSPKLLIYGASTRESGVPDRFTGSGSGTDFTLTISSVQAEDLAVYYCQNDSNYPFTFGGGTKLEMK	Bin 2
